Assay system: recombinant human ACC1 (Homo sapiens, UniProt Q13085)
Assay: Human ACC1 enzyme assay, Assay A1 (HTRF ADP immunoassay);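 note: ADP generated by the enzyme quantified via competitive time-resolved FRET, read as europium cryptate to d2 energy transfer after 1 h at 22 °C with labelled ADP tracer and anti-ADP antibody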
Param label: returns t when IC50 < 500 nM, returns f otherwise, including exact equality.

For orientation, consider the following solved cases.
* CO[C@H]1CC[C@]2(CC1)NC(=O)C(c1cc(-c3ccc(Cl)c(F)c3)cc(F)c1C)=C2O [1-105] | t
* O=C1N[C@]2(CC[C@@H](C(F)(F)F)CC2)C(O)=C1c1cc(-c2ccc(Cl)cc2)ccc1Cl [1-134] | t
* Cc1ccc(-c2ccc(F)c(F)c2)c(C)c1C1=C(O)[C@]2(CC[C@H](C(F)(F)F)CC2)NC1=O [1-101] | t

Find out if reported IC50 for CCO[C@H]1CC[C@@]2(CC1)NC(=O)C(c1cc(-c3ccc(Cl)cc3)ccc1C)=C2O [1-147] is less than 500 nM
t

// repeat for CO[C@H]1CC[C@]2(CC1)NC(=O)C(c1cc(-c3ccc(Cl)c(F)c3)ccc1C)=C2O [1-118] and report
t

Next entry: Cc1cc(C)c(-c2ccc(Cl)cc2)cc1C1=C(O)[C@]2(CC[C@H](C(F)(F)F)CC2)NC1=O [1-98]
f

Next compound up: CC1CCC2(CC1)NC(=O)C(c1cc(-c3ccc(Cl)cc3)ccc1Cl)=C2O (centres unmarked) [1-139]
t

And the next one, CO[C@]1(C)CC[C@]2(CC1)NC(=O)C(c1c(C)ccc(-c3ccc(Cl)cc3)c1C)=C2O [1-87] ?
f

====

Assay system: human ACC1 (acetyl-coenzyme A carboxylase alpha transcript variant 1) (Homo sapiens, UniProt Q13085)
Construct: FLAG (C); made in house; host or cells: baculovirus-infected insect cells (Hi5)
Assay: Human ACC1 enzyme assay, Assay B1 (ADP-Glo)
Format: biochemical
Condition set: Assay B1, ADP-Glo; read-out: ACC 1 (=B1) IC50
Observed property: pIC50
Give bare numbers, as −log10 of the molar value.

Consider the following illustrative entries.
• COC1CCCC2(C1)OC(=O)C(c1cc(-c3ccc(Cl)cc3)c(C)cc1C)=C2O (stereo not drawn) [2-11] = 5.90
• COC1CCCC2(C1)OC(=O)C(c1cc(-c3ccc(Cl)cc3)ccc1C)=C2O (stereo not drawn) [2-14] = 6.11
• COCCC1CCCC2(C1)OC(=O)C(c1cc(-c3ccc(Cl)cc3)ccc1Cl)=C2O (stereo not drawn) [2-19] = 6.09
• O=C1OC2(CCCCC2)C(O)=C1c1cc(-c2ccc(F)c(F)c2)ccc1Cl [2-25] = 5.92

Quick batch: pIC50 for everything below.
1. Cc1ccc(-c2ccc(F)c(F)c2)cc1C1=C(O)C2(CCCC2)OC1=O [2-22]
2. Cc1cc(C)c(-c2ccc(Cl)cc2)c(C)c1C1=C(O)C2(CCCCC2)OC1=O [2-6]
3. CCC1CCC2(CC1)OC(=O)C(c1cc(-c3ccc(Cl)cc3)ccc1C)=C2O (stereo not drawn) [2-1]
4. Cc1ccc(-c2ccc(Cl)cc2)cc1C1=C(O)C2(CCCCC2)OC1=O [2-10]
5. COCC1CCC2(CC1)OC(=O)C(c1cc(-c3ccc(Cl)cc3)ccc1C)=C2O (stereo not drawn) [2-20]

5.65
5.16
5.94
7.17
6.99

====

Assay system: UniProt O00763
Sequence (O00763 27-2458 limits assumed): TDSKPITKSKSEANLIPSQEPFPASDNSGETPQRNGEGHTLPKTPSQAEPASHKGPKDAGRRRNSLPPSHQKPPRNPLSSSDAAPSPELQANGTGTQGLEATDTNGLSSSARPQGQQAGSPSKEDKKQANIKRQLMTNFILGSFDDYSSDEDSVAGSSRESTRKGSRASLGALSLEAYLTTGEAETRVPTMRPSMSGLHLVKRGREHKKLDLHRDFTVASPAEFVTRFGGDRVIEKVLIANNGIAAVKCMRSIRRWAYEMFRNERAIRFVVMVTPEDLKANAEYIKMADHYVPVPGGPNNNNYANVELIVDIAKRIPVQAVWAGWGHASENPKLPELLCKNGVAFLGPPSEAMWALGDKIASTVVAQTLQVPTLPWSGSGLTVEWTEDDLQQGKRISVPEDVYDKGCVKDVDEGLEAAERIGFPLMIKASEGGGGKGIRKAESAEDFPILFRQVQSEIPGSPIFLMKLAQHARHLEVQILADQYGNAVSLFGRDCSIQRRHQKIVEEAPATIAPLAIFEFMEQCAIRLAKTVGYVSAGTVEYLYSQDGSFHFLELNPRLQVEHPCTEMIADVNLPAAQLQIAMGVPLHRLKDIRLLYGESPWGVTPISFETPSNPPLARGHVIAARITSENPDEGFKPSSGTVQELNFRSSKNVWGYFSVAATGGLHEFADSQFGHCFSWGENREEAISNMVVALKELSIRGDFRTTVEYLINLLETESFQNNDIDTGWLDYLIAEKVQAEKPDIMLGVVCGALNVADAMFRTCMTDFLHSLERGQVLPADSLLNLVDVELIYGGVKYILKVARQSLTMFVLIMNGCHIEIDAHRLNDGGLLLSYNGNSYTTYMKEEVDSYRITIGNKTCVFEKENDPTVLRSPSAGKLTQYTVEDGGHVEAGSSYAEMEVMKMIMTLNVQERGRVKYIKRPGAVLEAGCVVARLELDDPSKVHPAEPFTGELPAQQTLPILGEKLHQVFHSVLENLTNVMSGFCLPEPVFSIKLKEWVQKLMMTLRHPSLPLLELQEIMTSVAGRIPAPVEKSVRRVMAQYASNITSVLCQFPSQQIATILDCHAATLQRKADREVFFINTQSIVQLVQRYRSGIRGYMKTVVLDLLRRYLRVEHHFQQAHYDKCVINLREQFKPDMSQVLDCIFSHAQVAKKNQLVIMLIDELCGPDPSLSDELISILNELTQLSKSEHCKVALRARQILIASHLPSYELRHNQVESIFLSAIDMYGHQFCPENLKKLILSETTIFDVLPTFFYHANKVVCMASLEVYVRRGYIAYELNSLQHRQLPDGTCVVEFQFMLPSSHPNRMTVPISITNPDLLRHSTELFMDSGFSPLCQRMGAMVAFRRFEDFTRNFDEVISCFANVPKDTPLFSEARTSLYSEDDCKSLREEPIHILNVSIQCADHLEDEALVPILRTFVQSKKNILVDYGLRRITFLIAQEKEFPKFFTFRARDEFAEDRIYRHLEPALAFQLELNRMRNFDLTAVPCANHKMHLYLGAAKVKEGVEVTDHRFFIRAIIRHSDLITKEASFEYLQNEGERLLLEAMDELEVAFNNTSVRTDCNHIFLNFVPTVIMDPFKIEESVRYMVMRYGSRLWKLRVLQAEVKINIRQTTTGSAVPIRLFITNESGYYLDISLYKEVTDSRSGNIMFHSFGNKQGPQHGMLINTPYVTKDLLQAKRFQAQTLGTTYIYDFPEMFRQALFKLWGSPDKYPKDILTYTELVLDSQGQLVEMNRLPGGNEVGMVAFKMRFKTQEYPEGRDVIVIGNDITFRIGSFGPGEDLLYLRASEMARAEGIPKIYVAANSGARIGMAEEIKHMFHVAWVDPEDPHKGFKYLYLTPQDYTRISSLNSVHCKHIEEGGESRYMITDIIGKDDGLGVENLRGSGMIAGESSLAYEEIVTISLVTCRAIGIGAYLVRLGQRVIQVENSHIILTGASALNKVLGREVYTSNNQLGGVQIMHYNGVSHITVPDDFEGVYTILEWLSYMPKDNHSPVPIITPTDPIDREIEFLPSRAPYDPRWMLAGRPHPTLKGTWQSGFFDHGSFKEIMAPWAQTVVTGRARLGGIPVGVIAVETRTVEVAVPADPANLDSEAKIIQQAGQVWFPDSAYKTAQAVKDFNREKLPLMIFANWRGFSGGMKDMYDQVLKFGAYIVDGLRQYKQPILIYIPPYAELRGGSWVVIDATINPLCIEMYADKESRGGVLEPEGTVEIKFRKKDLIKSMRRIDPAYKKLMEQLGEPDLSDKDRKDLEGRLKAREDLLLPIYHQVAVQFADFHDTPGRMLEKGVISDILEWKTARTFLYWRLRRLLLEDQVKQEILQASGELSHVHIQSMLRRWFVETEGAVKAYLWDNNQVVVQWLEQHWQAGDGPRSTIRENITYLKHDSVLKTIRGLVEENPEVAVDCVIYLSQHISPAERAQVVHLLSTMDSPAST
Assay: Human ACC2 enzyme assay, Assay B2 (ADP-Glo);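 note: human ACC2 activity read as ADP product, detected by luciferase glow luminescence after residual ATP removal, enzyme near 2 ng/µl in linear range, detection steps at 22 °C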
Observed property: pIC50
Give bare numbers, as −log10 of the molar value.

Recorded pIC50, per entry:
- Cc1ccc(-c2ccc(Cl)cc2)c(C)c1C1=C(O)C2(CCCOC2)NC1=O (stereo not drawn): 5.02
- CO[C@]1(C)CC[C@]2(CC1)NC(=O)C(c1c(C)ccc(-c3ccc(Cl)cc3)c1C)=C2O: 4.98
- Cc1cc(C)c(-c2ccc(Cl)cc2)cc1C1=C(O)C(C)OC1=O (stereo not drawn): 4.76
- CO[C@H]1CC[C@]2(CC1)NC(=O)C(c1cc(-c3ccc(Cl)cc3F)ccc1C)=C2O: 6.02
- Cc1cc(C)c(-c2ccc(Cl)cc2)cc1C1=C(O)C2(CCCCCC2)OC1=O: 6.13

Hi team, please reply with pIC50 for each item in this list.
1. CCCC1CCC2(CC1)OC(=O)C(c1cc(-c3ccc(Cl)cc3)ccc1C)=C2O (stereo not drawn)
2. CCOC1CCC2(CC1)NC(=O)C(c1cc(-c3ccc(Cl)cc3)ccc1C)=C2O (stereo not drawn)
3. COC1CCC2(CC1)SC(=O)C(c1cc(-c3ccc(Cl)cc3)ccc1C)=C2O (stereo not drawn)

1. 5.62
2. 5.68
3. 4.81

Param item = CCC1CCC2(CC1)CC(=O)C(c1cc(-c3ccc(Cl)cc3)ccc1C)=C2O (stereo not drawn) ; retrieve measured pIC50.
5.92

====

Assay system: human ACC1 (acetyl-coenzyme A carboxylase alpha transcript variant 1) (Homo sapiens, UniProt Q13085)
Construct: FLAG (C); made in house; host or cells: baculovirus-infected insect cells (Hi5)
Assay: Human ACC1 enzyme assay, Assay B1 (ADP-Glo)
Format: biochemical
Condition set: Assay B1; read-out: ACC 1 (=B1) IC50
pIC50: −log10 of the molar value.
Decide by pIC50: equal to or exceeding 6 means true (1), less means false (0).

Example entries begin here.
• CN1C(=O)C(c2cc(-c3ccc(Cl)cc3)ccc2Cl)C(=O)N1C [8-15] = false (0)
• CCC1CCC2(CC1)CC(=O)C(c1cc(-c3ccc(Cl)cc3)ccc1C)=C2O (centres unmarked) [6-5] = true (1)
• Cc1ccc(-c2ccc(Cl)cc2)cc1C1=C(O)C2(CCCC2)NC1=O [1-85] = true (1)

Does pIC50 meet or surpass 6 for Cc1ccc(-c2ccc(Cl)cc2)cc1C1=C(O)CC(C)(C)N(C)C1=O [9-4] ?
false (0)

Proceed to Cc1ccc(-c2ccc(Cl)cc2)cc1C1=C(O)C2(CCCC2)CC1=O [6-4]
true (1)

Okay, and Cc1ccc(-c2ccc(Cl)cc2)c(C)c1C1=C(O)[C@]2(CC[C@H](OCC(F)(F)F)CC2)NC1=O [1-30] ?
true (1)

Also COC[C@H]1CC[C@]2(CC1)NC(=O)C(c1cc(-c3ccc(Cl)cc3)ccc1C)=C2O [1-116] ?
true (1)

Also Cc1ccc(-c2ccc(Cl)cc2)c(C)c1C1=C(O)[C@]2(CC[C@](O)(C(F)(F)F)CC2)NC1=O [1-125] , if possible.
true (1)

Now this one: CCO[C@H]1CC[C@]2(CC1)NC(=O)C(c1cc(-c3ccc(Cl)cc3)ccc1C)=C2O [1-146]
true (1)

Also check Cc1ccc(-c2ccc(F)cc2F)cc1C1C(=O)N2CCOCCN2C1=O [8-5]
false (0)

Same question, Cc1ccc(-c2ccc(C)c(C3=C(O)C4(CCOCC4)NC3=O)c2)cc1 [1-15] this time
true (1)

====

Assay system: human ACC1 (acetyl-coenzyme A carboxylase alpha transcript variant 1) (Homo sapiens, UniProt Q13085)
Construct: FLAG (C); made in house; host or cells: baculovirus-infected insect cells (Hi5)
Assay: Human ACC1 enzyme assay, Assay B1 (ADP-Glo)
Assay type: biochemical
Hi there, I'd appreciate the recorded pIC50 for every entry that follows.
Answers are plain numbers, as −log10 of the molar value.

• COC1CCC2(CC1)SC(=O)C(c1cc(-c3ccc(Cl)cc3)ccc1C)=C2O (centres unmarked) = 5.85
• Cc1ccc(-c2ccc(Cl)cc2)cc1C1=C(O)CN(C)C1=O = 6.62
• COC1CCC2(CC1)NC(=O)C(c1cc(-c3cc(F)ccc3F)ccc1C)=C2O (centres unmarked) = 5.66
• Cc1cc(C)c(-c2ccc(Cl)cc2)c(C)c1C1=C(O)[C@]2(CC[C@@]3(CCCO3)CC2)OC1=O = 5.70

Now let's try a different one.
If you can, please state the reported pIC50 value of Cc1ccc(-c2ccc(Cl)cc2)cc1C1=C(O)C2CSCCN2C1=O (centres unmarked) .
6.20

====

Assay system: human ACC1 (acetyl-coenzyme A carboxylase alpha transcript variant 1) (Homo sapiens)
Construct: FLAG (C); made in house; host or cells: baculovirus-infected insect cells (Hi5)
Assay: Human ACC1 enzyme assay, Assay B1 (ADP-Glo)
Type: biochemical
Condition set: Assay B1; read-out: ACC 1 (=B1) IC50
Labelling: IC50 reported below 1000 nM becomes 1; at or above becomes 0.

- Cc1ccc(-c2ccc(F)cc2)cc1-c1c(O)c2ccc(F)cc2[nH]c1=O: 0
- Cc1ccc(-c2ccc(F)c(F)c2)cc1C1=C(O)[C@]2(CC[C@H](C(F)(F)F)CC2)NC1=O: 1
- Cc1ccc(-c2ccc(Cl)cc2)cc1C1=C(O)C(C)(C)CNC1=O: 0
- Cc1c(F)cc(-c2ccc(F)c(F)c2)cc1C1=C(O)[C@]2(CC[C@H](C(F)(F)F)CC2)NC1=O: 1

Regarding Cc1ccc(-c2ccc(Cl)cc2)cc1C1C(=O)N(C)N(C)C1=O , kindly confirm whether its IC50 is beneath 1000 nM.
0

Input Cc1ccc(-c2ccc(Cl)cc2)c(C)c1C1=C(O)[C@]2(CC[C@H](C(F)(F)F)CC2)NC1=O
1

Follow-up entry: CCCC1CCC2(CC1)CC(=O)C(c1cc(-c3ccc(Cl)cc3)ccc1C)=C2O (centres unmarked)
1

Thanks! And CCO[C@H]1CC[C@@]2(CC1)NC(=O)C(c1cc(-c3ccc(Cl)cc3)ccc1C)=C2O ?
1

Also Cc1ccc(-c2ccc(Cl)c(F)c2)cc1C1=C(O)[C@]2(CC[C@](O)(C(F)(F)C(F)(F)F)CC2)NC1=O ?
1

Could you do the same for O=C1NC2(CCOCC2)C(O)=C1c1cc(-c2ccc(F)cc2)ccc1Cl , please?
0

Request: Cc1ccc(-c2ccc(F)c(F)c2)cc1C1=C(O)[C@]2(CC[C@@H](C(F)(F)F)CC2)NC1=O
1

Try this molecule next: Cc1ccc(-c2ccc(Cl)cc2)cc1C1=C(O)CN(CC(C)C)C1=O
0
